biological target: RORγt-LBD (Homo sapiens, UniProt P51449); assay: Time-resolved fluorescence resonance energy-transfer assay (TR-FRET), co-activator peptide recruitment; settings: His-RORγt-LBD 30 nM, SRC peptide 500 nM; agonistic activity; averages of one or more measurements; read-out: TR-FRET Biochemical EC50/
Listed compounds paired with reported EC50
Give the value in nM but do not write nM after it.

Example entries begin here.
Asked: Field request: EC50 | item: NC(=O)N1CCN2c3ccc(-c4cc(F)cc(OC(F)F)c4)cc3N(S(=O)(=O)c3cccc(C(F)(F)F)c3)C[C@@H]2C1 [Example 61]
Given back: 86

Asked: Which EC50 is listed for N#Cc1cccc(-c2ccc3c(c2)N(S(=O)(=O)c2cccc(C(F)(F)F)c2)C[C@@H]2CN(CC(=O)O)CCN32)c1F [Example 94] ?
Given back: 159

Continuing:
Asked: Returns the measured EC50 for the input compound. Input: NC(=O)N1CCN2c3ccc(/C=C/c4c(Cl)cccc4C(F)(F)F)cc3N(S(=O)(=O)c3cccc(C(F)(F)F)c3)C[C@@H]2C1 [Example 60]
Given back: 61.4

====

Target: UniProt:P51449
Sequence (P51449 269-508 limits assumed): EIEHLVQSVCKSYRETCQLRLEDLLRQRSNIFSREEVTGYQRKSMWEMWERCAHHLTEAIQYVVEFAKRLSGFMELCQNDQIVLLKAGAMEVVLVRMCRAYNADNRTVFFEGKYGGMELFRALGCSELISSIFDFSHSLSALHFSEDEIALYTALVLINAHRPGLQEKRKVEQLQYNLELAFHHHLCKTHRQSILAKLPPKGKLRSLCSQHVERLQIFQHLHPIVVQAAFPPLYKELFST
Experiment: Time-resolved fluorescence resonance energy-transfer assay (TR-FRET), co-activator peptide recruitment
Type: biochemical
Parameters: unit not given here
Conditions: upper activation limit; His-RORγt-LBD, SRC peptide
PROPERTY: TR-FRET Biochemical Amax

// below: answered compounds
Asked: Entry "COC(=O)CN1CCN2c3ccc(-c4cc(F)cc(OC(F)F)c4)cc3N(S(=O)(=O)c3cc(C(F)(F)F)cnc3OCCO)C[C@@H]2C1" has what TR-FRET Biochemical Amax?
Given back: 0.86

Asked: // lookup TR-FRET Biochemical Amax for "CC(=O)N1CCN2c3ccc(-c4cc(F)cc(OC(F)F)c4)cc3N(S(=O)(=O)c3cccc(C(F)(F)F)c3)C[C@@H]2C1"
Given back: 1.45

Asked: Tell me the measured TR-FRET Biochemical Amax of "O=S(=O)(c1cccc(C(F)(F)F)c1)N1C[C@H]2COCCN2c2ccc(-c3cc(F)cc(OC(F)F)c3)cc21" , please.
Given back: 0.74

Asked: Record request: TR-FRET Biochemical Amax value, item CC(C(=O)O)N1CCN2c3ccc(C4=CC(C)(C)OC(C)(C)C4)cc3N(S(=O)(=O)c3cccc(C(F)(F)F)c3)C[C@@H]2C1 (stereo partly shown)
Given back: 0.61

Asked: What measured TR-FRET Biochemical Amax goes with O=C(O)COC1CCN2c3ccc(-c4cc(F)cc(OC(F)F)c4)cc3N(S(=O)(=O)c3cccc(C(F)(F)F)c3)C[C@@H]2C1 (stereo partly shown) ?
Given back: 0.48

New cases:
Asked: Any idea what its TR-FRET Biochemical Amax is? The compound is "NC(=S)N1CCN2c3ccc(/C=C/c4c(Cl)cccc4C(F)(F)F)cc3N(S(=O)(=O)c3cccc(C(F)(F)F)c3)C[C@@H]2C1"
Given back: 0.89

Asked: # lookup: TR-FRET Biochemical Amax of "N#CC(CO)(CO)N1CCN2c3ccc(-c4cc(F)cc(OC(F)F)c4)cc3N(S(=O)(=O)c3cccc(C(F)(F)F)c3)C[C@@H]2C1"
Given back: 1.20

Asked: TR-FRET Biochemical Amax lookup needed for "CC1(C)C=C(c2ccc3c(c2)N(S(=O)(=O)c2cccc(C(F)(F)F)c2)C[C@@H]2CN(CC(=O)O)CCN32)CC(C)(C)O1" , thanks.
Given back: 0.62

Asked: Find the recorded TR-FRET Biochemical Amax belonging to "COC(=O)CN1CCN2c3ccc(/C=C/c4c(Cl)cccc4C(F)(F)F)cc3N(S(=O)(=O)c3cccc(OC(F)(F)F)c3)C[C@@H]2C1" and report it.
Given back: 1.01

Asked: What does the data say about its TR-FRET Biochemical Amax? Entry: "C/C(=C\c1ccc2c(c1)N(S(=O)(=O)c1cccc(C(F)(F)F)c1)C[C@@H]1CN(CC(=O)O)CCN21)c1c(F)cccc1Cl"
Given back: 0.94

Asked: Name the recorded TR-FRET Biochemical Amax for "N#CC1(N2CCN3c4ccc(-c5cc(F)cc(OC(F)F)c5)cc4N(S(=O)(=O)c4cccc(C(F)(F)F)c4)C[C@@H]3C2)CCC1" .
Given back: 0.95

Asked: Item "COc1ncc(C(F)(F)F)cc1S(=O)(=O)N1C[C@@H]2CN(CC(=O)O)CCN2c2ccc(-c3cc(F)cc(OC(F)F)c3)cc21" has what recorded TR-FRET Biochemical Amax?
Given back: 0.51

Asked: Which measured TR-FRET Biochemical Amax value corresponds to "N#CCC(=O)N1CCN2c3ccc(/C=C/c4c(Cl)cccc4C(F)(F)F)cc3N(S(=O)(=O)c3cccc(C(F)(F)F)c3)C[C@@H]2C1" ?
Given back: 0.84
